TARGET_SYSTEM: Janus Kinase (JAK) (Homo sapiens) (UniProt P52333+P23458+O60674+P29597)
TEST_DESCRIPTION: Inhibition of JAK-mediated GM-CSF-induced Stat5 phosphorylation in human U937 cells by Phospho-Flow cytometry at 20 uM
Type: cell-based
STATED_CONDITIONS: U-937
Listing of entries alongside the reported inhibition.

Answered cases to consult:
* C[C@H]1CC[C@@H]2[C@@H](C)[C@H]3[C@H](C[C@H]4[C@@H]5CC=C6C[C@@H](O[C@@H]7O[C@H](CO)[C@H](O)[C@H](O[C@@H]8O[C@H](CO)[C@@H](O)[C@H](O)[C@H]8O)[C@H]7O[C@H]7O[C@@H](C)[C@H](O)[C@@H](O)[C@H]7O)CC[C@]6(C)[C@H]5CC[C@]34C)N2C1 | 25%
* CC1OC(CC(=O)O)CC2=C1C(=O)c1c(O)cccc1C2=O (stereo not given) | 25%
* CC(C)=CC(=O)O[C@H]1[C@H]2[C@H](OC(=O)[C@H]2C)[C@H](O)[C@@H](C)[C@@H]2C=CC(=O)[C@]21C | 25%

Now look at this entry.
Challenge: Provide only the value of recorded inhibition for `CC(=O)c1c(O)c(C)c(O)c(Cc2c(O)c3c(c(C(=O)/C=C/c4ccccc4)c2O)OC(C)(C)C=C3)c1O`
Response given: 25%

* * *

TARGET_SYSTEM: MAP kinase p38 (Homo sapiens, UniProt O15264+Q15759+Q16539+P53778)
TEST_DESCRIPTION: Inhibition of anisomycin-induced p38 phosphorylation in human U937 cells by Phospho-Flow cytometry at 20 uM
Assay type: cell-based
STATED_CONDITIONS: U-937
Listing of entries alongside the reported inhibition.

* C/C=C/C1=C(Cl)C(=O)[C@H](Cl)[C@]1(O)C(=O)OC [CRYTOSPORIOPSIN] | 25%

Now look at this entry.
Challenge: Provide only the value of recorded inhibition for `C=C1C(=O)O[C@@H]2C[C@@H](C)[C@@H]3C=CC(=O)[C@@]3(C)[C@@H](O)[C@H]12`
Response given: 25%

* * *

TARGET_SYSTEM: Janus Kinase (JAK) (Homo sapiens) (UniProt P52333+P23458+O60674+P29597)
TEST_DESCRIPTION: Inhibition of JAK-mediated GM-CSF-induced Stat5 phosphorylation in human U937 cells by Phospho-Flow cytometry at 20 uM
Format: cell-based
STATED_CONDITIONS: U-937
Listing of entries alongside the reported inhibition.

• O=C1C=C2C(=CCOC2O)O1 (stereo not drawn) = 25%

Now look at this entry.
Challenge: Provide only the value of recorded inhibition for `C=C1C(=O)O[C@@H]2C[C@@]3(C)CCC[C@H](C)C3=C[C@H]12`
Response given: 25%

* * *

Listing of entries alongside the reported IC50.
TEST_DESCRIPTION: Inhibition of JAK-mediated IL4-induced Stat5 phosphorylation in BALB/c mouse B cells by Phospho-Flow cytometry
Format: cell-based

- C=C1C(=O)O[C@H]2C[C@@H]1[C@@H](OC(C)=O)C/C(C)=C/CC/C(C)=C\CC[C@@]2(C)O: 1 µM
- O=Nc1c(-c2c(O)[nH]c3ccccc23)[nH]c2ccccc12: < 20 µM
- COC1=C(N)C(=O)c2nc(-c3nc(C(=O)O)c(C)c(-c4ccc(OC)c(OC)c4O)c3N)ccc2C1=O: < 20 µM

Challenge: Provide only the value of recorded IC50 for `C=CC(=O)c1ccc2ccccc2c1`
Response given: < 20 µM

* * *

TARGET_SYSTEM: Janus Kinase (JAK) (Homo sapiens) (UniProt P52333+P23458+O60674+P29597)
TEST_DESCRIPTION: Inhibition of JAK-mediated interferon-gamma-induced Stat1 phosphorylation in human U937 cells by Phospho-Flow cytometry at 20 uM
Type: cell-based
STATED_CONDITIONS: U-937
The source made the active and inactive calls. The rule behind the calls is not given here.
ASSAY_ENDPOINT: inhibition

Answered cases to consult:
- CC(C)c1oc(=O)cc2c1[C@@H](O)[C@H]1OC(=O)[C@@]3(C)[C@@H](O)[C@H]4O[C@H]4[C@@]2(C)[C@@H]13: inactive
- C/C=C/C1=C(Cl)C(=O)[C@H](Cl)[C@]1(O)C(=O)OC: > 65%
- COC1=C[C@]23CCCN2CCc2cc4c(cc2[C@@H]3[C@@H]1O)OCO4: > 65%
- C=C1C(=O)O[C@@H]2C[C@@H](C)[C@@H]3C=CC(=O)[C@@]3(C)[C@@H](O)[C@H]12: 25%
- CC1CC(C)(O)CC(C(O)CC2CC(=O)NC(=O)C2)C1=O (stereo unspecified): 25%

Challenge: Lab note: Janus Kinase (JAK) (Homo sapiens) (UniProt P52333+P23458+O60674+P29597) assay, enter inhibition for `C=C1C(=O)O[C@@H]2C[C@@]3(C)CCC[C@H](C)C3=C[C@H]12` here
Response given: 25%

Challenge: Lab note: Janus Kinase (JAK) (Homo sapiens) (UniProt P52333+P23458+O60674+P29597) assay, enter inhibition for `CC[C@H]1CN2CCc3cc(OC)c(OC)cc3[C@@H]2C[C@@H]1C[C@H]1NCCc2c1[nH]c1ccc(O)cc21` here
Response given: > 65%

* * *

TEST_DESCRIPTION: Inhibition of JAK-mediated IL10-induced Stat3 phosphorylation in BALB/c mouse CD11b-hi neutrophils by Phospho-Flow cytometry
Listing of entries alongside the reported IC50.

* O=Nc1c(-c2c(O)[nH]c3ccccc23)[nH]c2ccccc12 | < 20 µM
* COC1=C(N)C(=O)c2nc(-c3nc(C(=O)O)c(C)c(-c4ccc(OC)c(OC)c4O)c3N)ccc2C1=O | < 20 µM
* C/C=C/C1=C(Cl)C(=O)[C@H](Cl)[C@]1(O)C(=O)OC | < 20 µM
* C=CC(=O)c1ccc2ccccc2c1 | < 20 µM

Now look at this entry.
Challenge: Provide only the value of recorded IC50 for `C=C1C(=O)O[C@H]2C[C@@H]1[C@@H](OC(C)=O)C/C(C)=C/CC/C(C)=C\CC[C@@]2(C)O`
Response given: < 20 µM

* * *

TARGET_SYSTEM: Janus Kinase (JAK) (Homo sapiens) (UniProt P52333+P23458+O60674+P29597)
TEST_DESCRIPTION: Inhibition of JAK-mediated GM-CSF-induced Stat5 phosphorylation in human U937 cells by Phospho-Flow cytometry at 20 uM
Assay type: cell-based
STATED_CONDITIONS: U-937
The source made the active and inactive calls. The rule behind the calls is not given here.
ASSAY_ENDPOINT: inhibition

* C=C1C(=O)O[C@H]2C[C@@H]1[C@@H](OC(C)=O)C/C(C)=C/CC/C(C)=C\CC[C@@]2(C)O | Active
* C/C=C/C1=C(Cl)C(=O)[C@H](Cl)[C@]1(O)C(=O)OC | Active
* COC1=C[C@]23CCCN2CCc2cc4c(cc2[C@@H]3[C@@H]1O)OCO4 | 25%
* CC1CC(C)(O)CC(C(O)CC2CC(=O)NC(=O)C2)C1=O (stereo not drawn) | 25%

Challenge: Provide only the value of recorded inhibition for `CC[C@H]1CN2CCc3cc(OC)c(OC)cc3[C@@H]2C[C@@H]1C[C@H]1NCCc2c1[nH]c1ccc(O)cc21`
Response given: 25%

Challenge: Provide only the value of recorded inhibition for `C=C1C(=O)O[C@@H]2C[C@@H](C)[C@@H]3C=CC(=O)[C@@]3(C)[C@@H](O)[C@H]12`
Response given: 25%

Challenge: Provide only the value of recorded inhibition for `COC1=C(N)C(=O)c2nc(-c3nc(C(=O)O)c(C)c(-c4ccc(OC)c(OC)c4O)c3N)ccc2C1=O`
Response given: 25%

Where these numbers come from: ChEMBL document CHEMBL1212697
